# test_system: T1, CrkL-W160S (human, UniProt P46109 1-303, W160S)
# T1 construct: human CrkL, residues 1-303, point mutant W160S, in pETEV15b; source: E. coli BL21 (DE3), purified (IMAC, TEV digestion, SEC); not shown: His, N-terminal, cleaved
# T1 sequence (P46109 whole entry W160S, the tested form may be a part): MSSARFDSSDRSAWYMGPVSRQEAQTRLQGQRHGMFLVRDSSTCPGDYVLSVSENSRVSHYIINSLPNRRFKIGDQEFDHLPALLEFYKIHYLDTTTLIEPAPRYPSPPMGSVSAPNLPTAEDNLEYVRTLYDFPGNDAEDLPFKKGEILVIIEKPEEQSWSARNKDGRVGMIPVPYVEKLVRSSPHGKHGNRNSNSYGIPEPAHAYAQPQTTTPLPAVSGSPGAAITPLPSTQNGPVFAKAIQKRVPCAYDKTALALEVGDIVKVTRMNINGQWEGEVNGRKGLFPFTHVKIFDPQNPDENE
# experiment_notes: fluorescence polarisation; fluorescein-labelled peptide at 0.2 µM titrated with CrkL or CrkL W160S; 20 mM Tris-HCl, 150 mM NaCl, pH 7.5, 0.1 mg/ml BSA; 1:1 binding model; apparent kd
# condition_context: both partners purified
No end group written: not given here. fluorescein = N-terminal fluorescein probe
measure: Kd

Challenge: Consider the binder fluorescein-LAPPPALPPKQRQL (P4 Pro-rich motif of human C3G, residues 605-618; also called P4 peptide of C3G; source: synthetic peptide (custom synthesized, Thermo Scientific)) [P4 (Fluo-605-618)] and give its measured Kd.
Response given: ~415 µM

Challenge: And fluorescein-NGPPPALPPKKRQS (P1 Pro-rich motif of human C3G, residues 280-293; also called P1 peptide of C3G; source: synthetic peptide (custom synthesized, Thermo Scientific)) [P1 (Fluo-280-293)] ?
Response given: ~490 µM

Challenge: Then this binder: fluorescein-TDTPPALPEKKRRS (P2 Pro-rich motif of human C3G, residues 450-463; also called P2 peptide of C3G; source: synthetic peptide (custom synthesized, Thermo Scientific)) [P2 (Fluo-450-463)]
Response given: > 4000 µM

Challenge: Next binder: fluorescein-PEKPPPLPEKKNKH (P3 Pro-rich motif of human C3G, residues 537-550; also called P3 peptide of C3G; source: synthetic peptide (custom synthesized, Thermo Scientific)) [P3 (Fluo-537-550)]
Response given: ~425 µM
